protocol-notes: Biodistribution of Beta-Carotene after periorbital skin administration (Example 4)
Assay type: in vivo, cynomolgus monkeys
condition-set: cynomolgus monkey, vitreous humor, topical, 507.6 μg/left eye; 3 h; 507.60 μg/left eye periorbital skin; read-out: Drug Concentration in Tissue, Vitreous humor
value-kind: concentration at 3 h

- CC1=C(/C=C/C(C)=C/C=C/C(C)=C/C=C/C=C(C)/C=C/C=C(C)/C=C/C2=C(C)CCCC2(C)C)C(C)(C)CCC1: 0 ng/g

###

protocol-notes: Biodistribution of JV-DE1 after single periorbital skin administration (Example 3)
Format: in vivo, cynomolgus monkeys
condition-set: cynomolgus monkey, plasma, topical, 179.12 μg/right eye; 0.5 h; 179.120 μg/right eye periorbital skin; animal 101; read-out: Drug Concentration in Plasma
value-kind: concentration at 0.5 h

- CC(C)Oc1ccc(Cc2ccc(NC3=NCCN3)cc2)cc1: 0.131 ng/mL

###

protocol-notes: Biodistribution of DHA after periorbital skin administration (Example 4)
Type: in vivo, cynomolgus monkeys
condition-set: cynomolgus monkey, plasma, topical, 6768.26 μg/left eye, 3 h; 6768.26 μg/left eye periorbital skin; animal 102; read-out: Drug Concentration in Plasma
value-kind: concentration at 3 h (ng/mL)

* CC/C=C\C/C=C\C/C=C\C/C=C\C/C=C\C/C=C\CCC(=O)O | 3100

###

protocol-notes: Biodistribution of JV-DE1 after single periorbital skin administration (Example 3)
Format: in vivo, cynomolgus monkeys
condition-set: cynomolgus monkey, right retina, topical, 159.26 μg/right eye; 24 h; 159.260 μg/right eye periorbital skin; read-out: Drug Concentration in Tissue, Right retina
value-kind: concentration at 24 h (ng/g)

- CC(C)Oc1ccc(Cc2ccc(NC3=NCCN3)cc2)cc1: 1620

###

protocol-notes: Biodistribution of DHA after periorbital skin administration (Example 4)
Type: in vivo, cynomolgus monkeys
condition-set: cynomolgus monkey, left retina, topical, 6768.26 μg/left eye, 3 h; 6768.26 μg/left eye periorbital skin; read-out: Drug Concentration in Tissue, Left retina
value-kind: concentration at 3 h (ng/g)

* CC/C=C\C/C=C\C/C=C\C/C=C\C/C=C\C/C=C\CCC(=O)O | 66700

###

protocol-notes: Rabbit pharmacokinetics and ocular tissue distribution, eye-drop to both eyes (Example 1)
Type: in vivo, New Zealand rabbits
condition-set: male, New Zealand, rabbit, plasma, topical or ocular; ocular instillation to both eyes, 0.12 mg/eye; at 0.5 hours post-dose
value-kind: Cmax

* CC(C)Oc1ccc(Cc2ccc(NC3=NCCN3)cc2)cc1 | ~2 ng/mL

###

protocol-notes: Biodistribution of Beta-Carotene after periorbital skin administration (Example 4)
Assay type: in vivo, cynomolgus monkeys
condition-set: cynomolgus monkey, upper eyelid, topical; 24 h; 505.99 μg/left eye periorbital skin; read-out: Drug Concentration in Tissue, Upper eyelid
value-kind: concentration at 24 h (ng/g)

- CC1=C(/C=C/C(C)=C/C=C/C(C)=C/C=C/C=C(C)/C=C/C=C(C)/C=C/C2=C(C)CCCC2(C)C)C(C)(C)CCC1: 0

###

protocol-notes: Biodistribution of JV-DE1 after single periorbital skin administration (Example 3)
Assay type: in vivo, cynomolgus monkeys
condition-set: cynomolgus monkey, plasma, topical or ocular, 0.16 mg; single dose monocular periorbital administration; over the 6 hour post-dose period
value-kind: Cmax

* CC(C)Oc1ccc(Cc2ccc(NC3=NCCN3)cc2)cc1 | 0.13 to 0.26 ng/mL

###

protocol-notes: Biodistribution of JV-DE1 after single periorbital skin administration (Example 3)
Format: in vivo, cynomolgus monkeys
condition-set: cynomolgus monkey, right retina, topical, 179.12 μg/right eye; 0.5 h; 179.120 μg/right eye periorbital skin; read-out: Drug Concentration in Tissue, Right retina
value-kind: concentration at 0.5 h (ng/g)

- CC(C)Oc1ccc(Cc2ccc(NC3=NCCN3)cc2)cc1 [JV-DE1]: 9300

###

protocol-notes: Biodistribution of DHA after periorbital skin administration (Example 4)
Type: in vivo, cynomolgus monkeys
condition-set: cynomolgus monkey, left upper eyelid, topical, 6567.89 μg/left eye, 0.5 h; 6567.89 μg/left eye periorbital skin; read-out: Drug Concentration in Tissue, Left upper eyelid
value-kind: concentration at 0.5 h (ng/g)

* CC/C=C\C/C=C\C/C=C\C/C=C\C/C=C\C/C=C\CCC(=O)O | 381000

###

protocol-notes: Biodistribution of DHA after periorbital skin administration (Example 4)
Format: in vivo, cynomolgus monkeys
condition-set: cynomolgus monkey, left upper eyelid, topical, 6768.26 μg/left eye, 3 h; 6768.26 μg/left eye periorbital skin; read-out: Drug Concentration in Tissue, Left upper eyelid
value-kind: concentration at 3 h (ng/g)

• CC/C=C\C/C=C\C/C=C\C/C=C\C/C=C\C/C=C\CCC(=O)O = 420000

###

protocol-notes: Biodistribution of Beta-Carotene after periorbital skin administration (Example 4)
Type: in vivo, cynomolgus monkeys
condition-set: cynomolgus monkey, vitreous humor, topical; 6 h; 526.32 μg/left eye periorbital skin; read-out: Drug Concentration in Tissue, Vitreous humor
value-kind: concentration at 6 h (ng/g)

- CC1=C(/C=C/C(C)=C/C=C/C(C)=C/C=C/C=C(C)/C=C/C=C(C)/C=C/C2=C(C)CCCC2(C)C)C(C)(C)CCC1 [Beta-Carotene, β-Carotene]: 0

###

protocol-notes: Biodistribution of JV-DE1 after single periorbital skin administration (Example 3)
Type: in vivo, cynomolgus monkeys
condition-set: cynomolgus monkey, right upper eyelid, topical, 159.26 μg/right eye; 24 h; 159.260 μg/right eye periorbital skin; read-out: Drug Concentration in Tissue, Right upper eyelid
value-kind: concentration at 24 h (ng/g)

* CC(C)Oc1ccc(Cc2ccc(NC3=NCCN3)cc2)cc1 [JV-DE1] | 11600

###

protocol-notes: Biodistribution of JV-DE1 after single periorbital skin administration (Example 3)
Type: in vivo, cynomolgus monkeys
condition-set: cynomolgus monkey, right upper eyelid, topical, 179.12 μg/right eye; 0.5 h; 179.120 μg/right eye periorbital skin; read-out: Drug Concentration in Tissue, Right upper eyelid
value-kind: concentration at 0.5 h (ng/g)

* CC(C)Oc1ccc(Cc2ccc(NC3=NCCN3)cc2)cc1 | 26500

###

protocol-notes: Biodistribution of DHA after periorbital skin administration (Example 4)
Assay type: in vivo, cynomolgus monkeys
condition-set: cynomolgus monkey, left retina, topical, 6746.51 μg/left eye, 24 h; 6746.51 μg/left eye periorbital skin; read-out: Drug Concentration in Tissue, Left retina
value-kind: concentration at 24 h (ng/g)

- CC/C=C\C/C=C\C/C=C\C/C=C\C/C=C\C/C=C\CCC(=O)O: 47300

###

protocol-notes: Rabbit bio-disposition, eye-drop to one eye (OD) (Example 2)
Assay type: in vivo, New Zealand rabbits
condition-set: New Zealand, rabbit, plasma, topical or ocular; ocular instillation to one eye (OD), 0.12 mg/eye; at 0.5 hours post-dose
value-kind: Cmax

- CC(C)Oc1ccc(Cc2ccc(NC3=NCCN3)cc2)cc1 [JV-DE1]: 0.95 ng/mL

###

protocol-notes: Biodistribution of JV-DE1 after single periorbital skin administration (Example 3)
Format: in vivo, cynomolgus monkeys
condition-set: cynomolgus monkey, right upper eyelid, topical, 160.58 μg/right eye; 3 h; 160.580 μg/right eye periorbital skin; read-out: Drug Concentration in Tissue, Right upper eyelid
value-kind: concentration at 3 h

* CC(C)Oc1ccc(Cc2ccc(NC3=NCCN3)cc2)cc1 | 32500 ng/g

###

protocol-notes: Biodistribution of JV-DE1 after single periorbital skin administration (Example 3)
Type: in vivo, cynomolgus monkeys
condition-set: cynomolgus monkey, right retina, topical, 162.23 μg/right eye; 6 h; 162.230 μg/right eye periorbital skin; read-out: Drug Concentration in Tissue, Right retina
value-kind: concentration at 6 h

• CC(C)Oc1ccc(Cc2ccc(NC3=NCCN3)cc2)cc1 = 23900 ng/g

###

protocol-notes: Biodistribution of Beta-Carotene after periorbital skin administration (Example 4)
Assay type: in vivo, cynomolgus monkeys
condition-set: cynomolgus monkey, retina, topical; 6 h; 526.32 μg/left eye periorbital skin; read-out: Drug Concentration in Tissue, Retina
value-kind: concentration at 6 h (ng/g)

* CC1=C(/C=C/C(C)=C/C=C/C(C)=C/C=C/C=C(C)/C=C/C=C(C)/C=C/C2=C(C)CCCC2(C)C)C(C)(C)CCC1 | 0
